# Target entity: Histone deacetylase 4 (Homo sapiens, UniProt P56524)
# Sequence (P56524 whole entry): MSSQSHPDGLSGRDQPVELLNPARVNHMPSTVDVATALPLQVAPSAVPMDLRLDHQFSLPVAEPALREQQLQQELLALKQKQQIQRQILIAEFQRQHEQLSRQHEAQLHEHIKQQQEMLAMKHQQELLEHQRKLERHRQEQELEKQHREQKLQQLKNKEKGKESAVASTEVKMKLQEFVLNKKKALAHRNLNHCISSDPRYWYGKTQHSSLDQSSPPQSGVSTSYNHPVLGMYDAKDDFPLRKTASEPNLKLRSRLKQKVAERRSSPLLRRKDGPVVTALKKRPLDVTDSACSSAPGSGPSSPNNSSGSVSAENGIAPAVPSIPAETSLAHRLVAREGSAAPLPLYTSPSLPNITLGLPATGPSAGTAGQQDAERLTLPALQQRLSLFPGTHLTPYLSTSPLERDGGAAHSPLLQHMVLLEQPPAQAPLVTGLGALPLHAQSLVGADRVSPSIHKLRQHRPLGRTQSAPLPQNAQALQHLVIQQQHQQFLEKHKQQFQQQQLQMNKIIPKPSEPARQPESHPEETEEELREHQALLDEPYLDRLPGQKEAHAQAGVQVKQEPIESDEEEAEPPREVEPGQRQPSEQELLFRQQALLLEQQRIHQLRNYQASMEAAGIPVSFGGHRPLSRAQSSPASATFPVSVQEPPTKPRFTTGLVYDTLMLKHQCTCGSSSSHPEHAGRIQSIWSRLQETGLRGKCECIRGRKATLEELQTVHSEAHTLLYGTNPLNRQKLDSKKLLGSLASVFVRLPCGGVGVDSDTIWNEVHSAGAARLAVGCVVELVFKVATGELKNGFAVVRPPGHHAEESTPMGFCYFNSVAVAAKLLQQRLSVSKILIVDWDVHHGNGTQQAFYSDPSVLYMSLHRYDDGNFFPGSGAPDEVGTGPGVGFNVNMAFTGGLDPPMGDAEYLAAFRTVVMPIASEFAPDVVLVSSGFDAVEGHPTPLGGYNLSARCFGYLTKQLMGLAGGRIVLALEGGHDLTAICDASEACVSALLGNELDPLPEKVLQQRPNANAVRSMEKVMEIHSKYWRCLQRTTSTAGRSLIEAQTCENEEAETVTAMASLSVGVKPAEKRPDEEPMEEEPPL
# Assay procedure: Inhibition of recombinant human HDAC4 using Boc-Lys (trifluoroacetyl)-AMC as substrate preincubated for 1 hr followed by substrate addition and measured after 1 hr by micro plate reader analysis
Measured attribute: IC50 (µM)
Hi! Could you send only the number? It should be in µM, unit omitted.

Known results for molecules:
Smiles structure	Units text	IC50
CCOc1ccc2nc(NC(=O)COc3ccc4cc(/C=C5/SC(=O)NC5=O)ccc4c3)sc2c1	µM	3.6
O=C(COc1ccc2cc(/C=C3/SC(=O)NC3=O)ccc2c1)Nc1ccc(F)cc1F	µM	3.9
O=C(COc1ccc2cc(/C=C3/SC(=O)NC3=O)ccc2c1)Nc1ccc(Cl)c(Cl)c1	µM	5.5
O=C(COc1ccc2cc(/C=C3/SC(=O)NC3=O)ccc2c1)Nc1ccc(Br)cc1	µM	2.9
O=C(COc1ccc2cc(/C=C3/SC(=O)NC3=O)ccc2c1)Nc1ccc(Br)c(Br)c1	µM	4.9

Record request: IC50 value, item `Cc1ccc(NC(=O)COc2ccc3cc(/C=C4/SC(=O)NC4=O)ccc3c2)cc1Cl`
1.1

Using the record for `O=C(COc1ccc2cc(/C=C3/SC(=O)NC3=O)ccc2c1)Nc1ccc(Br)cc1F` , report its IC50.
1.9

Name the reported IC50 value associated with the molecule `O=C(COc1ccc2cc(/C=C3/SC(=O)NC3=O)ccc2c1)Nc1ccccc1Oc1ccccc1`
5.2

Looking for the measured IC50 of `O=C(COc1ccc2cc(/C=C3/SC(=O)NC3=O)ccc2c1)Nc1cccc(F)n1` , can you help?
0.84

* * *

# Target entity: Histone deacetylase 8 (Homo sapiens)
# Sequence (Q9BY41 whole entry): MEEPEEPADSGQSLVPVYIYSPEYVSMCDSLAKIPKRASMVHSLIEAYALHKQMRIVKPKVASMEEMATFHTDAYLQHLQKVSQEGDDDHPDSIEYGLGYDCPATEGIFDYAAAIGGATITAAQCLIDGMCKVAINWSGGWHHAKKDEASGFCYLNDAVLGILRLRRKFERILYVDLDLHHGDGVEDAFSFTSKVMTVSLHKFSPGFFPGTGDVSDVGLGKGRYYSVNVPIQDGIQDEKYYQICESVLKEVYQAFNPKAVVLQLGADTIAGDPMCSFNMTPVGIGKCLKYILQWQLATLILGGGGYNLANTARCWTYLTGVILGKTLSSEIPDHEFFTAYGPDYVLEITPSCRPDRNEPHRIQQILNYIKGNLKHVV
# Assay procedure: Inhibition of recombinant human HDAC8 using Boc-Lys (trifluoroacetyl)-AMC as substrate preincubated for 1 hr followed by substrate addition and measured after 1 hr by micro plate reader analysis
Each entry below carries its reported pIC50.
pIC50 here: minus log base 10 of the concentration, concentration in moles per litre.

Smiles structure	Test value
O=C(COc1ccc2cc(/C=C3/SC(=O)NC3=O)ccc2c1)Nc1nc2ccccc2s1	5.57

Please examine the following record next.
Tell me the measured pIC50 of `Cc1cccc(NC(=O)COc2ccc3cc(/C=C4/SC(=O)NC4=O)ccc3c2)n1` , please.
5.12

* * *

# Test system: HS27
# Assay procedure: Cytotoxicity against human HS-27 cells assessed as cell death incubated for 20 hrs measured by DNS assay
# Assay type: toxicity, cell-based
# Setup conditions: hs27, 20 h
Known CC50 of a selection of molecules
Give just the number in µM; leave the unit off.

Worked cases, CC50 given:
Smiles structure	CC50, µM
Cc1ccc(NC(=O)COc2ccc3cc(/C=C4/SC(=O)NC4=O)ccc3c2)cc1	40.2
O=C(COc1ccc2cc(/C=C3/SC(=O)NC3=O)ccc2c1)Nc1c(F)cc(F)cc1Br	39.9

Now consider a different molecule.
What value of CC50 has been reported for the following molecule? `O=C(COc1ccc2cc(/C=C3/SC(=O)NC3=O)ccc2c1)Nc1ccc(Br)cc1F`
57

* * *

Listing of entries alongside the reported IC50.
# Target entity: Histone deacetylase 4 (Homo sapiens)
# Assay procedure: Inhibition of recombinant human HDAC4 using Boc-Lys (trifluoroacetyl)-AMC as substrate preincubated for 1 hr followed by substrate addition and measured after 1 hr by micro plate reader analysis
Entry format: amount then unit.

Here is how some compounds turned out for IC50.
Smiles structure	Target entity	IC50
Cc1cc(NC(=O)COc2ccc3cc(/C=C4/SC(=O)NC4=O)ccc3c2)no1	Histone deacetylase 4 (Homo sapiens)	1700 nM
COc1ccc(NC(=O)COc2ccc3cc(/C=C4/SC(=O)NC4=O)ccc3c2)cc1	Histone deacetylase 4 (Homo sapiens)	4700 nM
Cc1cccc2sc(NC(=O)COc3ccc4cc(/C=C5/SC(=O)NC5=O)ccc4c3)nc12	Histone deacetylase 4 (Homo sapiens)	1200 nM
O=C(COc1ccc2cc(/C=C3/SC(=O)NC3=O)ccc2c1)Nc1cc(Cl)cc(C(F)(F)F)c1	Histone deacetylase 4 (Homo sapiens)	4000 nM

Report IC50 for `Cc1ccc(NC(=O)COc2ccc3cc(/C=C4/SC(=O)NC4=O)ccc3c2)cc1` tested on Histone deacetylase 4 (Homo sapiens).
1700 nM

* * *

# Tested on: SH-SY5Y
# Assay procedure: Cytotoxicity against human SH-SY5Y cells assessed as cell death incubated at 10 uM for 20 hrs measured by DNS assay
# Type: functional
Measured attribute: Activity (%)
Field: numeric (%). Do not append units.

Below, each entry is followed by its recorded Activity result.
Smiles structure	Activity (%)
O=C(COc1ccc2cc(/C=C3/SC(=O)NC3=O)ccc2c1)Nc1cccc(C(F)(F)F)c1	0
O=C(COc1ccc2cc(/C=C3/SC(=O)NC3=O)ccc2c1)Nc1cccc(Cl)c1	10.79

Pending molecule:
Please report the recorded Activity for `COc1cccc(NC(=O)COc2ccc3cc(/C=C4/SC(=O)NC4=O)ccc3c2)c1` .
0

* * *

# Target entity: UniProt:Q9BY41
# Assay procedure: Inhibition of recombinant human HDAC8 using Boc-Lys (trifluoroacetyl)-AMC as substrate preincubated for 1 hr followed by substrate addition and measured after 1 hr by micro plate reader analysis
Examples of molecules with documented IC50 follow.
Report only the number, with the unit µM understood.

Smiles structure	IC50 / µM
CCOc1ccc2nc(NC(=O)COc3ccc4cc(/C=C5/SC(=O)NC5=O)ccc4c3)sc2c1	17

Now consider the entry below.
IC50 for `Cc1cccc2sc(NC(=O)COc3ccc4cc(/C=C5/SC(=O)NC5=O)ccc4c3)nc12` ?
5.8

* * *

# Target entity: Histone deacetylase 4 (Homo sapiens)
# Assay procedure: Inhibition of recombinant human HDAC4 using Boc-Lys (trifluoroacetyl)-AMC as substrate preincubated for 1 hr followed by substrate addition and measured after 1 hr by micro plate reader analysis
Measured attribute: IC50
Answer as a quantity: numeral, then unit.

Use these answered entries as a reference point.
Smiles structure	Measured attribute	Test value
O=C(COc1ccc2cc(/C=C3/SC(=O)NC3=O)ccc2c1)Nc1c(F)cc(F)cc1Br	IC50	1100 nM
O=C(COc1ccc2cc(/C=C3/SC(=O)NC3=O)ccc2c1)Nc1ccccc1	IC50	2100 nM
O=C(COc1ccc2ccccc2c1/C=C1\SC(=O)NC1=O)Nc1ccc([N+](=O)[O-])cc1	IC50	15000 nM

Please tell me: IC50 of `O=C(COc1ccc2cc(/C=C3/SC(=O)NC3=O)ccc2c1)Nc1cccc(Cl)c1` , system Histone deacetylase 4 (Homo sapiens)?
3800 nM

Request - read-out IC50 | tested on Histone deacetylase 4 (Homo sapiens) | compound `Cc1cc(Br)ccc1NC(=O)COc1ccc2cc(/C=C3/SC(=O)NC3=O)ccc2c1`
550 nM

Requested read-out IC50, target or system Histone deacetylase 4 (Homo sapiens), entry `O=C(COc1ccc2cc(/C=C3/SC(=O)NC3=O)ccc2c1)Nc1ccc([N+](=O)[O-])cc1`
1700 nM

Write down the reported IC50 of `Cc1cccc(NC(=O)COc2ccc3cc(/C=C4/SC(=O)NC4=O)ccc3c2)n1` , test system: Histone deacetylase 4 (Homo sapiens).
1100 nM

Param readout = IC50; param system = Histone deacetylase 4 (Homo sapiens); param query = `O=C(COc1ccc2cc(/C=C3/SC(=O)NC3=O)ccc2c1)Nc1cccc(C(F)(F)F)c1` ; response: value
2500 nM

Lab note: need IC50 for `O=C(COc1ccc2cc(/C=C3/SC(=O)NC3=O)ccc2c1)Nc1nc2ccccc2s1` on Histone deacetylase 4 (Homo sapiens), anyone have it?
420 nM

* * *

# Target entity: Histone deacetylase 4 (Homo sapiens)
# Assay procedure: Inhibition of recombinant human HDAC4 using Boc-Lys (trifluoroacetyl)-AMC as substrate preincubated for 1 hr followed by substrate addition and measured after 1 hr by micro plate reader analysis
Measured attribute: IC50 (nM)
Your answer is read as nM, so omit the unit and give the number.

Below, each entry is followed by its recorded IC50 result.
Smiles structure	Units text	IC50
O=C(COc1ccc2cc(/C=C3/SC(=O)NC3=O)ccc2c1)Nc1ccc(F)cc1	nM	1600
O=C(COc1ccc2cc(/C=C3/SC(=O)NC3=O)ccc2c1)Nc1ccccn1	nM	17000

# ---- query compound ----
I am curious: what IC50 value has been reported for `COc1cccc(NC(=O)COc2ccc3cc(/C=C4/SC(=O)NC4=O)ccc3c2)c1` ?
1600
